Sourced from the supplement of paper PMC6555819

- System: RARb:RXRa (NR concentration 270 nM, RXRa partner concentration 90 nM)
- Method description: PBM binding z-score (relative to random genomic background probes); higher = stronger binding; sequences stand for … in GC…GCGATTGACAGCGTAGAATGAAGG
Mark false for PBM binding z-score values under 3, and true for everything at or above.

Test whether the sequence GCTAGCAGGCCATTTGGGTGACTCAATGACGGGC records PBM binding z-score of 3 or higher.
false

Determine whether this sequence has PBM binding z-score no lower than 3: CCTACTGTGCCACGAAAGGTCATTGATTCAGTGA
true

Could you verify whether the entry ACAGACAGGTGAGTGAAGATAACTCAGCTGGACG shows PBM binding z-score of no less than 3?
false

API: above_or_equal(metric=PBM binding z-score, cutoff=3) for item GCCAGCAGGCCATTTGGGTCACTCAATGACGGGC
false

Is it the case that TCTTGTAGATCAGCGGGTTAAGAAAGCTGGCCAA has PBM binding z-score reaching or exceeding 3?
false

Textbook exercise: given the entry CAAACTAGGTCAAGAGGTCAAAATCCGCTTCCCG , state whether its PBM binding z-score is greater than or equal to 3.
true

Check this sequence for PBM binding z-score at or above 3: AATACAGGGTAATCGTAGGCCAGAGTACGCACAG
false

Does the reported PBM binding z-score for TCATATAGGTATTACAGGTGAAAGTCGGCATCTA fall at or above the 3 mark?
false

In plain terms: is recorded PBM binding z-score at least 3 for CCGACTCGGGCAGAAAGGTTACCATACCATCCGG ?
false

Test whether the sequence CCTAGTTGGGCAAGGTCACACACGCTATAGGTAC records PBM binding z-score of 3 or higher.
true

Entry TGTAGTTGGTCACGGAGGTCACACACGACGGGTA : is its PBM binding z-score no less than 3?
true

Could you tell me if the measured PBM binding z-score of GATACAGGGTCAAGGCGAGAGTACGCGTATTGAT reaches 3 or more?
true

Can GTACCAAGGTGAATAGGTCGTTGAGGAGTAGGCG be said to have PBM binding z-score at or above 3?
false

Can TAGCCTAGGTCATTGGGCCAGGATAGTACGCATC be said to have PBM binding z-score at or above 3?
true

Exam item: decide whether the reported PBM binding z-score for CCAGACTGGTGAGAAGGTAACTCAGCCTCGATTA is at least 3.
false

Threshold query (PBM binding z-score >= 3) on CGAACGAGGGCATGTGTTGATAGCAAATGCCGAT
false

Dear colleague, could you confirm whether CCGACTGGGGCCTAAGGTTACCATAAGCCAGCCC has PBM binding z-score at or above 3?
false

Exam item: decide whether the reported PBM binding z-score for CATTACGGGTCACTCCAGGTTATAGCATCGGAGT is at least 3.
true

Decide: is the reported value of PBM binding z-score for TCAGACAGGTGAAGGTAACTTAGGTACGCAGTCG equal to or greater than 3?
false

Decide: PBM binding z-score of TCGGACAGGTGAAGGTAACTCAGGTACGCAGTCG >= 3?
false

Is PBM binding z-score at least 3? Consider TCGAGTAGGTTACCAATGGGGCATGCAGCTTTCT
false

Textbook exercise: given the entry GGAGCGAGGGCATTCGAGTTGATAGCATGGCGAT , state whether its PBM binding z-score is greater than or equal to 3.
false

For this sequence, is measured PBM binding z-score 3 or higher? GCCTACGGGTCAAAGGTTATAGCATGAATAGAAT
true

Tell me whether PBM binding z-score is at least 3 here: CGAACTAGGTCAAGGACAGTGGATCTCCGCACGC
true

PBM binding z-score >= 3 for ACTCGGAGGACAAAGGCCAGAGCTACGCCAGTGA ?
false

Textbook exercise: given the entry CGACCAAGGTCATAGGAGGTCAGTGAAGACAGAT , state whether its PBM binding z-score is greater than or equal to 3.
true

Record ATCTCTAGGTAAAGATAGTTCAGTGGATGCAAAT ; criterion: PBM binding z-score no lower than 3. Met?
false

Identify whether the reported PBM binding z-score of the following sequence is 3 or greater: CCTATTAGTGGACCATAAGGGCAACCGAAGCTCG
false

Threshold query (PBM binding z-score >= 3) on CCTCTGAGGACAACAGGAGGTCAGAGCTGCCAGA
false

Hello, I need to know if CCTACTGGGCCATCAGGTCATTGTTATCAACGTT has measured PBM binding z-score not below 3. Thanks!
false

// inclusive: PBM binding z-score at least 3? input: GCTGCTAGGTCAGGTGGGTCAGCTAACGGGTACG
true

Is PBM binding z-score at least 3? Consider CTGCCTAGGTCAGGGCCAGTATAGGAGGAACGTT
true

Confirm if PBM binding z-score reported for the sequence ACTAGCAGGCCAAGTTTGGGTCACTCTAACAAAG is 3 or above.
false

Given CAAACTAGGTCAAGGTCAAAGGCGGTTTGTGCCA , state whether its PBM binding z-score is at least 3.
true

Please indicate if the recorded PBM binding z-score for ACACCAAGGTGATCGTGAGGTCGTTGATACTAAC meets or exceeds 3.
false

Hi, just wondering whether TCTAGCAGGCCAGAGGCTCACTCAAGAGGTACGG shows PBM binding z-score of 3 or higher.
false

Can CCTACTGGGCCATCAGGTCATTGGTATCAACGTT be said to have PBM binding z-score at or above 3?
false

I'd appreciate it if you could say whether GCTGCTAGGTCAACTGATGGTCAGCTTAAGCTCG has PBM binding z-score at least equal to 3.
true

Reported PBM binding z-score reaches at least 3 for CGTCCAAGGTCAGAGGTCAGTGAAGAGATGACGG ?
true

Can TCTCGGAGGACACGAAAGGTCATAGCTCGACATC be said to have PBM binding z-score at or above 3?
true

Determine whether this sequence has PBM binding z-score no lower than 3: ATCGAAAGGTCGAAGGTGAGTATCCCCACCCGAA
true

Confirm if PBM binding z-score reported for the sequence CCTTGCAGGCCAATCTGGGTCACTCAAGGCTTGA is 3 or above.
false

Say whether CAAACTAGGTCAAGGTCAAAGTTGGTTTGTGCCA shows PBM binding z-score of 3 or more.
true

Is PBM binding z-score at least 3? Consider ATATGTAGGTTACATCCGGGTGATTCAGGCTATG
false

Please indicate if the recorded PBM binding z-score for CGTACAAGGTCAATGCTAGGTCAGTGAAAGCATT meets or exceeds 3.
true

Confirm if PBM binding z-score reported for the sequence CGTGCTAGGTCATGGTCAGCTAATCTACAGTATG is 3 or above.
true

In plain terms: is recorded PBM binding z-score at least 3 for ACTATTAGTTGACTTAGGGCAACTGATACGACGC ?
false

Textbook exercise: given the entry CCTAGCAGGCCAATCTGGGTCCCTCAAGGCTTGA , state whether its PBM binding z-score is greater than or equal to 3.
false

Check the entry ACTAGCAGGCCAAGGGTCACTCAAGATTAGTCCG : does PBM binding z-score equal or exceed 3?
true

I'd appreciate it if you could say whether GCTATTAATTGAAAGGGCAACCGAATGATTCTCG has PBM binding z-score at least equal to 3.
false

In plain terms: is recorded PBM binding z-score at least 3 for TCTATTAGTTGGAGGGCAACCGACGAGTCCGTTT ?
false
